- System: diaphorase
- procedure-details: Formation of formazan dyes: NADH and diaphorase, absence of malate (TABLE 7)
- Format: biochemical, Clostridium kluyveri
- condition-parameters: NADH and diaphorase, absence of malate; 0 h
# Formation of formazan dyes, absorbance, Means 0 h values compiled below
Please respond with just the number, no unit label.

Some compounds with recorded Formation of formazan dyes, absorbance, Means 0 h:
smiles-text: COc1cc(-c2ccc(-[n+]3nc(-c4ccc(C(=O)N(CCS(=O)(=O)[O-])CCS(=O)(=O)[O-])cc4)nn3-c3nc4ccccc4s3)c(OC)c2)ccc1-[n+]1nc(-c2ccc(C(=O)N(CCS(=O)(=O)[O-])CCS(=O)(=O)[O-])cc2)nn1-c1nc2ccccc2s1.[Na+].[Na+]
reported-measurement: 2.81
//
smiles-text: COc1cc([N+](=O)[O-])c(S(=O)(=O)[O-])cc1-n1nc(C(=O)Nc2ccccc2)n[n+]1-c1cc(S(=O)(=O)O)c([N+](=O)[O-])cc1OC
reported-measurement: 2.22
//
smiles-text: Cc1nc(-[n+]2nc(-c3cccc(OCC(=O)O)c3)nn2-c2ccc(S(=O)(=O)[O-])cc2)sc1C
reported-measurement: 3.21
//
smiles-text: O=[N+]([O-])c1ccc(-[n+]2nc(-c3ccc(S(=O)(=O)[O-])cc3S(=O)(=O)[O-])nn2-c2ccc(I)cc2)cc1.[Na+]
reported-measurement: 3.54

Please find the next compound below.
Request: // Formation of formazan dyes, absorbance, Means 0 h lookup, key: COc1cc([N+](=O)[O-])ccc1-[n+]1nc(-c2ccc(S(=O)(=O)[O-])cc2S(=O)(=O)[O-])nn1-c1ccc([N+](=O)[O-])cc1.[Na+]
Response: 3.54

* * *

- System: Malate dehydrogenase and diaphorase
- procedure-details: Formation of formazan dyes: Malate dehydrogenase, diaphorase and malate (TABLE 10)
- Assay type: biochemical, pig heart
- condition-parameters: Malate dehydrogenase, diaphorase and malate; 2 h
# Formation of formazan dyes, absorbance, Means 2 h values compiled below
Please respond with just the number, no unit label.

Some compounds with recorded Formation of formazan dyes, absorbance, Means 2 h:
compound: COc1cc(-c2ccc(-[n+]3nc(-c4ccc(C(=O)N(CCS(=O)(=O)[O-])CCS(=O)(=O)[O-])cc4)nn3-c3nc4ccccc4s3)c(OC)c2)ccc1-[n+]1nc(-c2ccc(C(=O)N(CCS(=O)(=O)[O-])CCS(=O)(=O)[O-])cc2)nn1-c1nc2ccccc2s1.[Na+].[Na+] [WST-5]
target: Malate dehydrogenase and diaphorase
reported-measurement: 1.67
//
compound: COc1cc([N+](=O)[O-])ccc1-[n+]1nc(-c2ccc(S(=O)(=O)[O-])cc2S(=O)(=O)[O-])nn1-c1ccc([N+](=O)[O-])cc1.[Na+] [WST-8]
target: Malate dehydrogenase and diaphorase
reported-measurement: 2.36
//
compound: O=[N+]([O-])c1ccc(-[n+]2nc(-c3ccc(S(=O)(=O)[O-])cc3S(=O)(=O)[O-])nn2-c2ccc(I)cc2)cc1.[Na+] [WST-1]
target: Malate dehydrogenase and diaphorase
reported-measurement: 1.31

Request: // Formation of formazan dyes, absorbance, Means 2 h lookup, key: Cc1nc(-[n+]2nc(-c3cccc(OCC(=O)O)c3)nn2-c2ccc(S(=O)(=O)[O-])cc2)sc1C [MTS]
Response: 2.93

Request: How about COc1cc([N+](=O)[O-])c(S(=O)(=O)[O-])cc1-n1nc(C(=O)Nc2ccccc2)n[n+]1-c1cc(S(=O)(=O)O)c([N+](=O)[O-])cc1OC [XTT] ?
Response: 2.41

* * *

# Formation of formazan dyes, absorbance, Means 8 h values compiled below
- System: Malate dehydrogenase and diaphorase
- procedure-details: Formation of formazan dyes: Malate dehydrogenase, diaphorase and malate (TABLE 10)
- Format: biochemical, pig heart
- condition-parameters: Malate dehydrogenase, diaphorase and malate; 8 h
Please respond with just the number, no unit label.

Some molecules with recorded Formation of formazan dyes, absorbance, Means 8 h:
smiles-text: O=[N+]([O-])c1ccc(-[n+]2nc(-c3ccc(S(=O)(=O)[O-])cc3S(=O)(=O)[O-])nn2-c2ccc(I)cc2)cc1.[Na+]
reported-measurement: 1.81
//
smiles-text: COc1cc([N+](=O)[O-])ccc1-[n+]1nc(-c2ccc(S(=O)(=O)[O-])cc2S(=O)(=O)[O-])nn1-c1ccc([N+](=O)[O-])cc1.[Na+]
reported-measurement: 3.26
//
smiles-text: Cc1nc(-[n+]2nc(-c3cccc(OCC(=O)O)c3)nn2-c2ccc(S(=O)(=O)[O-])cc2)sc1C
reported-measurement: 3.73
//
smiles-text: COc1cc(-c2ccc(-[n+]3nc(-c4ccc(C(=O)N(CCS(=O)(=O)[O-])CCS(=O)(=O)[O-])cc4)nn3-c3nc4ccccc4s3)c(OC)c2)ccc1-[n+]1nc(-c2ccc(C(=O)N(CCS(=O)(=O)[O-])CCS(=O)(=O)[O-])cc2)nn1-c1nc2ccccc2s1.[Na+].[Na+]
reported-measurement: 2.34

Please find the next molecule below.
Request: // Formation of formazan dyes, absorbance, Means 8 h lookup, key: COc1cc([N+](=O)[O-])c(S(=O)(=O)[O-])cc1-n1nc(C(=O)Nc2ccccc2)n[n+]1-c1cc(S(=O)(=O)O)c([N+](=O)[O-])cc1OC
Response: 3.86

* * *

# Formation of formazan dyes, absorbance, Means 1 h values compiled below
- Test system: Malate dehydrogenase and diaphorase
- procedure-details: Formation of formazan dyes: Malate dehydrogenase, diaphorase and malate (TABLE 10)
- Format: biochemical, pig heart
- condition-parameters: Malate dehydrogenase, diaphorase and malate; 1 h

smiles-text: COc1cc(-c2ccc(-[n+]3nc(-c4ccc(C(=O)N(CCS(=O)(=O)[O-])CCS(=O)(=O)[O-])cc4)nn3-c3nc4ccccc4s3)c(OC)c2)ccc1-[n+]1nc(-c2ccc(C(=O)N(CCS(=O)(=O)[O-])CCS(=O)(=O)[O-])cc2)nn1-c1nc2ccccc2s1.[Na+].[Na+]
target: Malate dehydrogenase and diaphorase
reported-measurement: 1.32

smiles-text: COc1cc([N+](=O)[O-])c(S(=O)(=O)[O-])cc1-n1nc(C(=O)Nc2ccccc2)n[n+]1-c1cc(S(=O)(=O)O)c([N+](=O)[O-])cc1OC
target: Malate dehydrogenase and diaphorase
reported-measurement: 1.98

smiles-text: Cc1nc(-[n+]2nc(-c3cccc(OCC(=O)O)c3)nn2-c2ccc(S(=O)(=O)[O-])cc2)sc1C
target: Malate dehydrogenase and diaphorase
reported-measurement: 2.67

smiles-text: COc1cc([N+](=O)[O-])ccc1-[n+]1nc(-c2ccc(S(=O)(=O)[O-])cc2S(=O)(=O)[O-])nn1-c1ccc([N+](=O)[O-])cc1.[Na+]
target: Malate dehydrogenase and diaphorase
reported-measurement: 1.93

Please find the next compound below.
Request: Notebook entry, Malate dehydrogenase and diaphorase assay: Formation of formazan dyes, absorbance, Means 1 h of O=[N+]([O-])c1ccc(-[n+]2nc(-c3ccc(S(=O)(=O)[O-])cc3S(=O)(=O)[O-])nn2-c2ccc(I)cc2)cc1.[Na+] = ?
Response: 1.15

* * *

- System: diaphorase
- procedure-details: Formation of formazan dyes: only diaphorase, not malate (TABLE 13)
- Assay type: biochemical, Clostridium kluyveri
- condition-parameters: 6 h, mean of three experiments
quantity-kind: Absorbance, formation of formazan dyes (Means)
Please respond with just the number, no unit label.

molecule: COc1cc(-c2ccc(-[n+]3nc(-c4ccc(C(=O)N(CCS(=O)(=O)[O-])CCS(=O)(=O)[O-])cc4)nn3-c3nc4ccccc4s3)c(OC)c2)ccc1-[n+]1nc(-c2ccc(C(=O)N(CCS(=O)(=O)[O-])CCS(=O)(=O)[O-])cc2)nn1-c1nc2ccccc2s1.[Na+].[Na+] [WST-5]
target: diaphorase
reported-measurement: 0.38
--
molecule: O=[N+]([O-])c1ccc(-[n+]2nc(-c3ccc(S(=O)(=O)[O-])cc3S(=O)(=O)[O-])nn2-c2ccc(I)cc2)cc1.[Na+] [WST-1]
target: diaphorase
reported-measurement: 0.71
--
molecule: COc1cc([N+](=O)[O-])c(S(=O)(=O)[O-])cc1-n1nc(C(=O)Nc2ccccc2)n[n+]1-c1cc(S(=O)(=O)O)c([N+](=O)[O-])cc1OC [XTT]
target: diaphorase
reported-measurement: 0.60
--
molecule: Cc1nc(-[n+]2nc(-c3cccc(OCC(=O)O)c3)nn2-c2ccc(S(=O)(=O)[O-])cc2)sc1C [MTS]
target: diaphorase
reported-measurement: 0.20

Request: // Absorbance, formation of formazan dyes (Means) lookup, key: COc1cc([N+](=O)[O-])ccc1-[n+]1nc(-c2ccc(S(=O)(=O)[O-])cc2S(=O)(=O)[O-])nn1-c1ccc([N+](=O)[O-])cc1.[Na+] [WST-8]
Response: 0.46

* * *

- System: diaphorase
- procedure-details: Formation of formazan dyes: only diaphorase and malate (TABLE 14)
- Type: biochemical, Clostridium kluyveri
- condition-parameters: 10 h, mean of three experiments
Decide using Absorbance, formation of formazan dyes (Means): a value greater than or equal to 0.7 is met, a smaller one is not met.

Worked cases, answers included:
smiles-text: O=[N+]([O-])c1ccc(-[n+]2nc(-c3ccc(S(=O)(=O)[O-])cc3S(=O)(=O)[O-])nn2-c2ccc(I)cc2)cc1.[Na+]
category: not met
--
smiles-text: Cc1nc(-[n+]2nc(-c3cccc(OCC(=O)O)c3)nn2-c2ccc(S(=O)(=O)[O-])cc2)sc1C
category: met
--
smiles-text: COc1cc(-c2ccc(-[n+]3nc(-c4ccc(C(=O)N(CCS(=O)(=O)[O-])CCS(=O)(=O)[O-])cc4)nn3-c3nc4ccccc4s3)c(OC)c2)ccc1-[n+]1nc(-c2ccc(C(=O)N(CCS(=O)(=O)[O-])CCS(=O)(=O)[O-])cc2)nn1-c1nc2ccccc2s1.[Na+].[Na+]
category: not met

Request: Hello, I need to know if COc1cc([N+](=O)[O-])ccc1-[n+]1nc(-c2ccc(S(=O)(=O)[O-])cc2S(=O)(=O)[O-])nn1-c1ccc([N+](=O)[O-])cc1.[Na+] has measured Absorbance, formation of formazan dyes (Means) not below 0.7. Thanks!
Response: not met
